# merged literature set: IC50 with human GST-DYRK1A (Homo sapiens, UniProt Q13627)

# example entries with known answers
compound	IC50
CNc1cc(Nc2ccc(C(=O)N3CCOCC3)c3c2OCC3)nc2[nH]cc(C(F)(F)F)c12	< 0.1 µM
CC#CC1CNC(=O)N1c1nc2c3c(ccc2s1)OCCN3C(C)=O (racemic)	0.1 to 1 µM
N#Cc1c[nH]c2nc(Nc3ccc(C(=O)N4CCOCC4)c4c3OCCO4)cc(NC3CCCC3)c12	0.301 to 1 µM
CNc1nc(Nc2ccc(C(=O)N3CCC(N4CCOCC4)CC3)c3c2OCO3)nc2[nH]cc(C(F)(F)F)c12	0.101 to 0.3 µM
COc1cc(P(C)(C)=O)ccc1Nc1nc(NC2CCCC2)c2c(C#N)c[nH]c2n1	0.301 to 1 µM

For each entry beneath this line, provide reported IC50.
1. COc1cc(S(=O)(=O)N2CCC(N3CCOCC3)CC2)ccc1Nc1cc(NC2CCC2)c2c(C(F)(F)F)c[nH]c2n1
2. COc1cc(S(C)(=O)=O)ccc1Nc1nc(NC(C)C)c2c(C(F)(F)F)c[nH]c2n1

Resp:
1: 0.301 to 1 µM; 2: 0.301 to 1 µM

Req: Look up and report IC50, with human GST-DYRK1A (Homo sapiens, UniProt Q13627) as system, for COc1cc(S(C)(=O)=O)ccc1Nc1cc(NC2CCC2)c2c(C(F)(F)F)c[nH]c2n1
Resp: 0.301 to 1 µM

----------
# merged literature set: IC50 with human GST-DYRK1A (Homo sapiens)

Cc1n[nH]c2ncc(-c3cccc(NC4CCN(C)CC4)n3)cc12 > 500 nM
O=C(NCc1cccnc1)c1cnc2[nH]cc(-c3ccc4ncc(NCC5CCOCC5)cc4c3)c2c1 < 10 nM
CCc1cnn2c(NCc3ccc(-c4ccccn4)cc3)nc(NC[C@H](O)CO)nc12 420 nM
CCCNc1nc(Nc2ccc(C(=O)N3CCOCC3)c3c2OCC3)nc2[nH]cc(C(F)(F)F)c12 < 100 nM
CC[C@@H](C)Nc1nc(Nc2ccc(S(C)(=O)=O)cc2OC)nc2[nH]ccc12 301 to 1000 nM
COc1cc(P2(=O)CCN(C3CC3)CC2)ccc1Nc1nc(NC(C)C)c2c(C(F)(F)F)c[nH]c2n1 301 to 1000 nM

For each entry beneath this line, provide reported IC50.
1. CC(C)Nc1nc(Nc2ccc(C(=O)N3CCOCC3)c3c2OCC3)nc2[nH]cc(C#N)c12
2. O=C(c1ccc(Nc2nc(NC3CCCC3)c3c(C(F)(F)F)c[nH]c3n2)c2c1OCCO2)N1CCOCC1

Resp:
["301 to 1000 nM", "101 to 300 nM"]

For each entry beneath this line, provide reported IC50.
1. Cc1n[nH]c2ncc(-c3cncc(N(C)CC4CCOCC4)n3)cc12
2. CCNc1cc(Nc2ccc(S(=O)(=O)N3CCC(N4CCOCC4)CC3)cc2OC)nc2[nH]ccc12

Resp:
1: < 500 nM; 2: 301 to 1000 nM

For each entry beneath this line, provide reported IC50.
1. COc1cc(S(=O)(=O)N2CCOCC2)ccc1Nc1cc(NC2CC2)c2c(C(F)(F)F)c[nH]c2n1
2. CCNc1cc(Nc2ccc(C(=O)N3CCN(C4CCCC4)CC3)c3c2OCC3)nc2[nH]cc(C(F)(F)F)c12

Resp:
1. 301 to 1000 nM
2. 101 to 300 nM

For each entry beneath this line, provide reported IC50.
1. Cc1n[nH]c2ncc(-c3cncc(C(=O)N4CCCCC4)n3)cc12
2. COCCNc1cc(Nc2ccc(S(=O)(=O)N3CCOCC3)cc2OC)nc2[nH]cc(C#N)c12
3. CCNc1cc(Nc2ccc(S(=O)(=O)N3CCC(N4CCOCC4)CC3)c3c2OCC3)nc2[nH]cc(C(F)(F)F)c12
4. CCNc1cc(Nc2ccc(C(=O)N3CCOCC3)c3c2OCO3)nc2[nH]cc(C#N)c12

Resp:
1: > 1000 nM; 2: 301 to 1000 nM; 3: 301 to 1000 nM; 4: 301 to 1000 nM

----------
pIC50: −log10 of the molar value.
# merged literature set: pIC50 with human GST-DYRK1A (Homo sapiens)

# example entries with known answers
COc1cc(P2(=O)CCN(C3CC3)CC2)ccc1Nc1nc(NC2CCC2)c2c(C(F)(F)F)c[nH]c2n1 6.00 to 6.52
CCCCNc1nc(Nc2ccc(P(C)(C)=O)cc2OC)nc2[nH]cc(C#N)c12 6.00 to 6.52
CCNc1cc(Nc2ccc(P3(=O)CCN(C(C)=O)CC3)cc2OC)nc2[nH]cc(C#N)c12 6.52 to 7.00
COc1cc(S(=O)(=O)N2CCC(N3CCOCC3)CC2)ccc1Nc1cc(NCCS(C)(=O)=O)c2c(Cl)c[nH]c2n1 > 7.00

Next up:
Req: Look up and report pIC50, with human GST-DYRK1A (Homo sapiens) as system, for C=CCN(C)C(=O)c1cnc2[nH]cc(-c3cc(Cl)c4ncccc4c3)c2c1
Resp: 7.00 to 8.00

----------
# merged literature set: IC50 with UniProt Q13627

# example entries with known answers
COc1cc(S(=O)(=O)N2CCC(N3CCOCC3)CC2)ccc1Nc1cc(NC2CCC2)c2c(C#N)c[nH]c2n1 0.301 to 1 µM
CN1CCN(c2cncc(-c3cnc4[nH]ccc4c3)n2)CC1 < 0.5 µM
O=C(c1ccc(Nc2nc(NCC3CC3)c3c(C(F)(F)F)c[nH]c3n2)c2c1OCCO2)N1CCOCC1 0.301 to 1 µM
N#Cc1c[nH]c2nc(Nc3ccc(C(=O)N4CC(CO)(CO)C4)c4c3OCCO4)nc(NC3CCCC3)c12 0.301 to 1 µM
CC[C@@H](C)Nc1nc(Nc2ccc(S(=O)(=O)N3CCOCC3)cc2OC)nc2[nH]ccc12 0.301 to 1 µM
Oc1ccc(-c2nc3c(ccc4[nH]cnc43)s2)cc1O 0.4 µM

For each entry beneath this line, provide reported IC50.
1. COc1cc(S(=O)(=O)N2CCOCC2)ccc1Nc1nc(NC(C)C)c2c(C#N)c[nH]c2n1
2. COc1cc(S(C)(=O)=O)ccc1Nc1nc(N[C@@H]2CCOC2)c2c(C(F)(F)F)c[nH]c2n1

Resp:
1: 0.301 to 1 µM; 2: 0.301 to 1 µM

----------
# merged literature set: IC50 with human GST-DYRK1A (Homo sapiens, UniProt Q13627)

# example entries with known answers
compound	IC50
COc1cc(S(=O)(=O)N2CCOCC2)ccc1Nc1cc(NCCS(C)(=O)=O)c2c(C(F)(F)F)c[nH]c2n1	< 100 nM
CC(C)Nc1cc(Nc2ccc(C(=O)N3CCOCC3)c3c2OCCO3)nc2[nH]cc(C(F)(F)F)c12	301 to 1000 nM
c1cnc2[nH]cc(-c3ccc4nccc(-c5ccncc5)c4c3)c2c1	< 10 nM
CC(C)CNc1nc(Nc2ccc(C(=O)N3CCC(N4CCOCC4)CC3)c3c2OCCO3)nc2[nH]cc(C(F)(F)F)c12	301 to 1000 nM
COc1cc(S(C)(=O)=O)ccc1Nc1cc(NC2CC2)c2cc[nH]c2n1	301 to 1000 nM
COc1cc(S(=O)(=O)N2CCC(N3CCOCC3)CC2)ccc1Nc1nc(NC2CC2)c2c(C#N)c[nH]c2n1	101 to 300 nM

For each entry beneath this line, provide reported IC50.
1. CCNc1cc(Nc2ccc(S(=O)(=O)N3CCOCC3)cc2OC)nc2[nH]cc(Cl)c12
2. O=C1NCC(C#Cc2ccccc2)N1c1nc2c3c(ccc2s1)OCC3 (racemic)

Resp:
["301 to 1000 nM", "100 to 1000 nM"]

----------
# merged literature set: IC50 with human GST-DYRK1A (Homo sapiens, UniProt Q13627)

compound	quantityMeasured	reportedValue
CNc1nc(Nc2ccc(C(=O)N3CCC(N4CCOCC4)CC3)c3c2OCC3)nc2[nH]cc(C(F)(F)F)c12	IC50	< 100 nM
CC#CC1CNC(=O)N1c1nc2c(ccc3ocnc32)s1 (single isomer, unassigned)	IC50	100 to 1000 nM
COc1cc(S(C)(=O)=O)ccc1Nc1cc(NCCS(C)(=O)=O)c2c(Cl)c[nH]c2n1	IC50	301 to 1000 nM

Next up:
Req: Quick one: give measured IC50 for COc1cc(S(=O)(=O)N2CCOCC2)ccc1Nc1nc(NCC2CCC2)c2c(C#N)c[nH]c2n1
Resp: 301 to 1000 nM

----------
pIC50: −log10 of the molar value.
# merged literature set: pIC50 with human GST-DYRK1A (Homo sapiens, UniProt Q13627)

compound	pIC50
CC[C@@H](C)Nc1nc(Nc2ccc(P(C)(C)=O)cc2OC)nc2[nH]cc(C#N)c12	6.52 to 7.00
Cc1n[nH]c2ncc(-c3cncc(NC(=O)C4CCN(C)CC4)n3)cc12	< 6.30
CCNc1nc(Nc2ccc(C(=O)N3CCN(C4COC4)CC3)c3c2OCCO3)nc2[nH]cc(C#N)c12	6.52 to 7.00
CCNc1nc(Nc2ccc(C(=O)N3CCOCC3)c3c2OCC3)nc2[nH]cc(C(F)(F)F)c12	> 7.00
CC(C)(O)C#Cc1ncc(-c2ccc3cncc(CN4CCC(C(=O)O)CC4)c3c2)s1	< 6.00
COc1cc(S(=O)(=O)N2CCC(N3CCOCC3)CC2)ccc1Nc1cc(NC2CCCCC2)c2c(C(F)(F)F)c[nH]c2n1	6.00 to 6.52
CC[C@H](C)Nc1nc(Nc2ccc(C(=O)N3CCOCC3)c3c2OCC3)nc2[nH]cc(C#N)c12	6.00 to 6.52

Req: Quick one: give measured pIC50 for CC#C[C@H]1[C@H](CO)NC(=O)N1c1nc2c3c(ccc2s1)OCCO3 (single isomer, unassigned)
Resp: 6.00 to 7.00
